Tested on: hTERT-HMEC
Protocol Text: percentage of EdU-negative (G0-arrested) nuclei per well, 72 h; higher = more G0 arrest
Test Parameters: protein concentration 0.225 µM; reference: sequence is the full UniProt precursor, the tested protein was the secreted form or ectodomain
Measured Endpoint: percentage of EdU-negative (%)
Record the value in %, omitting the unit from your answer.

Query block: Record request: percentage of EdU-negative value, item MSPSPTALFCLGLCLGRVPAQSGPLPKPSLQALPSSLVPLEKPVTLRCQGPPGVDLYRLEKLSSSRYQDQAVLFIPAMKRSLAGRYRCSYQNGSLWSLPSDQLELVATGVFAKPSLSAQPGPAVSSGGDVTLQCQTRYGFDQFALYKEGDPAPYKNPERWYRASFPIITVTAAHSGTYRCYSFSSRDPYLWSAPSDPLELVVTGTSVTPSRLPTEPPSPVAEFSEATAELTVSFTNEVFTTETSRSITASPKESDSPAGPARQYYTKGNLVRICLGAVILIILAGFLAEDWHSRRKRLRHRGRAVQRPLPPLPPLPLTRKSNGGQDGGRQDVHSRGLCS [Q9HCN6]
Result block: 5.35

Query block: Ok, now "MQCRLPRGLAGALLTLLCMGLLCLRYHLNLSPQRVQGTPELSQPNPGPPKLQLHDVFIAVKTTRAFHRLRLELLLDTWVSRTREQTFVFTDSPDKGLQERLGSHLVVTNCSAEHSHPALSCKMAAEFDTFLASGLRWFCHVDDDNYVNPRALLQLLRAFPLARDVYVGRPSLNRPIHASEPQPHNRTRLVQFWFATGGAGFCINRKLALKMAPWASGSRFMDTSALIRLPDDCTMGYIIECKLGGRLQPSPLFHSHLETLQLLRTAQLPEQVTLSYGVFEGKLNVIKLQGPFSPEEDPSRFRSLHCLLYPDTPWCPQLGAR"
Result block: 11.6

----------
Tested on: hTERT-HMEC
Protocol Text: percentage of EdU-negative (G0-arrested) nuclei per well, 72 h; higher = more G0 arrest
Test Parameters: protein concentration 0.225 µM; reference: sequence is the full UniProt precursor, the tested protein was the secreted form or ectodomain
Provide the reported percentage of EdU-negative of each item.
Give the quantity in %, number only.

Query block: State the recorded percentage of EdU-negative for this entry: "MLGVLELLLLGAAWLAGPARGQNETEPIVLEGKCLVVCDSNPTSDPTGTALGISVRSGSAKVAFSAIRSTNHEPSEMSNRTMIIYFDQVLVNIGNNFDSERSTFIAPRKGIYSFNFHVVKVYNRQTIQVSLMLNGWPVISAFAGDQDVTREAASNGVLIQMEKGDRAYLKLERGNLMGGWKYSTFSGFLVFPL"
Result block: 5.71

Query block: Entry to check: "MWQLLLPTALLLLVSAGMRTEDLPKAVVFLEPQWYSVLEKDSVTLKCQGAYSPEDNSTQWFHNENLISSQASSYFIDAATVNDSGEYRCQTNLSTLSDPVQLEVHIGWLLLQAPRWVFKEEDPIHLRCHSWKNTALHKVTYLQNGKDRKYFHHNSDFHIPKATLKDSGSYFCRGLVGSKNVSSETVNITITQGLAVSTISSFSPPGYQVSFCLVMVLLFAVDTGLYFSVKTNI"
Result block: 4.98

Query block: Proceed to "MKITGGLLLLCTVVYFCSSSEAASLSPKKVDCSIYKKYPVVAIPCPITYLPVCGSDYITYGNECHLCTESLKSNGRVQFLHDGSC"
Result block: 6.62

Query block: // repeat for "MMLRVLVGAVLPAMLLAAPPPINKLALFPDKSAWCEAKNITQIVGHSGCEAKSIQNRACLGQCFSYSVPNTFPQSTESLVHCDSCMPAQSMWEIVTLECPGHEEVPRVDKLVEKILHCSCQACGKEPSHEGLSVYVQGEDGPGSQPGTHPHPHPHPHPGGQTPEPEDPPGAPHTEEEGAED" and report
Result block: 5.88

Query block: Another sequence: MVLCWLLLLVMALPPGTTGVKDCVFCELTDSMQCPGTYMHCGDDEDCFTGHGVAPGTGPVINKGCLRATSCGLEEPVSYRGVTYSLTTNCCTGRLCNRAPSSQTVGATTSLALGLGMLLPPRLL [Q8TDM5]
Result block: 5.43

Query block: Record: MQAARGGAGRPERPGRPGRGPERERERPPGAGAASPCAAPGLPAGGATIHPGSPSAWPPRARAALRLWLGCVCFALVQADSPSAPVNVTVRHLKANSAVVSWDVLEDEVVIGFAISQQKKDVRMLRFIQEVNTTTRSCALWDLEEDTEYIVHVQAISIQGQSPASEPVLFKTPREAEKMASKNKDEVTMKEMGRNQQLRTGEVLIIVVVLFMWAGVIALFCRQYDIIKDNEPNNNKEKTKSASETSTPEHQGGGLLRSKI [Q8NAU1]
Result block: 5.43

Query block: Item: MPAVFMLASSSALQCGRGVPRFPRTEVGAGHSVNEETKAEKVGNQTSVIPATSRQAALGTSWTQRRTQPLQERSHWHPRGNNASGMGGHRMFPGPLRGPAAQVLENECGSLGRAAEGRS [Q8N2X6]
Result block: 4.77

Query block: Entry to check: MLPWLLVFSALGIQAWGDSSWNKTQAKQVSEGLQYLFENISQLTEKGLPTDVSTTVSRKAWGAEAVGCSIQLTTPVNVLVIHHVPGLECHDQTVCSQRLRELQAHHVHNNSGCDVAYNFLVGDDGRVYEGVGWNIQGVHTQGYNNISLGFAFFGTKKGHSPSPAALSAMENLITYAVQKGHLSSSYVQPLLGKGENCLAPRQKTSLKKACPGVVPRSVWGARETHCPRMTLPAKYGIIIHTAGRTCNISDECRLLVRDIQSFYIDRLKSCDIGYNFLVGQDGAIYEGVGWNVQGSSTPGYDDIALGITFMGTFTGIPPNAAALEAAQDLIQCAMVKGYLTPNYLLVGHSDVARTLSPGQALYNIISTWPHFKH [Q96LB8]
Result block: 6.41

----------
System: hTERT-HMEC;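 also: secreted proteins added to cultured cells, EdU pulse at the end, nuclei found by Hoechst imaging, EdU status from nuclear versus surrounding ring intensity ratio, PBS as neutral control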
Protocol Text: percentage of EdU-negative (G0-arrested) nuclei per well, 72 h; higher = more G0 arrest
Test Parameters: protein concentration 0.03125 µM; reference: sequence is the full UniProt precursor, the tested protein was the secreted form or ectodomain
Please go through the items and note down their percentage of EdU-negative.
# value in %; strip the unit string

Query block: percentage of EdU-negative of "MALSFSLLMAVLVLSYKSICSLGCDLPQTHSLGNRRALILLAQMGRISHFSCLKDRYDFGFPQEVFDGNQFQKAQAISAFHEMIQQTFNLFSTKDSSAAWDETLLDKFYIELFQQLNDLEACVTQEVGVEEIALMNEDSILAVRKYFQRITLYLMGKKYSPCAWEVVRAEIMRSFSFSTNLQKGLRRKD" on hTERT-HMEC?
Result block: 11.7

Query block: Thanks! And "MMCGAPSATQPATAETQHIADQVRSQLEEKENKKFPVFKAVSFKSQVVAGTNYFIKVHVGDEDFVHLRVFQSLPHENKPLTLSNYQTNKAKHDELTYF" ?
Result block: 5.09

Query block: Next entry: "MFPFYSCWRTGLLLLLLAVAVRESWQTEEKTCDLVGEKGKESEKELALVKRLKPLFNKSFESTVGQGSDTYIYIFRVCREAGNHTSGAGLVQINKSNGKETVVGRLNETHIFNGSNWIMLIYKGGDEYDNHCGKEQRRAVVMISCNRHTLADNFNPVSEERGKVQDCFYLFEMDSSLACSPEISHLSVGSILLVTFASLVAVYVVGGFLYQRLVVGAKGMEQFPHLAFWQDLGNLVADGCDFVCRSKPRNVPAAYRGVGDDQLGEESEERDDHLLPM"
Result block: 5.26

Query block: What do we get for MDSDETGFEHSGLWVSVLAGLLLGACQAHPIPDSSPLLQFGGQVRQRYLYTDDAQQTEAHLEIREDGTVGGAADQSPESLLQLKALKPGVIQILGVKTSRFLCQRPDGALYGSLHFDPEACSFRELLLEDGYNVYQSEAHGLPLHLPGNKSPHRDPAPRGPARFLPLPGLPPALPEPPGILAPQPPDVGSSDPLSMVGPSQGRSPSYAS [Q9NSA1] ?
Result block: 4.59

Query block: What about this sequence? "MKTLQFFFLFCCWKAICCNSCELTNITIAIEKEECRFCISINTTWCAGYCYTRDLVYKDPARPKIQKTCTFKELVYETVRVPGCAHHADSLYTYPVATQCHCGKCDSDSTDCTVRGLGPSYCSFGEMKE"
Result block: 5.26

Query block: Could you do the same for MAAPSGGWNGVGASLWAALLLGAVALRPAEAVSEPTTVAFDVRPGGVVHSFSHNVGPGDKYTCMFTYASQGGTNEQWQMSLGTSEDHQHFTCTIWRPQGKSYLYFTQFKAEVRGAEIEYAMAYSKAAFERESDVPLKTEEFEVTKTAVAHRPGAFKAELSKLVIVAKASRTEL [Q969H8] , please?
Result block: 4.64

Query block: Please give the result for "MRALVLLLSLFLLGGQAQHVSDWTYSEGALDEAHWPQHYPACGGQRQSPINLQRTKVRYNPSLKGLNMTGYETQAGEFPMVNNGHTVQISLPSTMRMTVADGTVYIAQQMHFHWGGASSEISGSEHTVDGIRHVIEIHIVHYNSKYKSYDIAQDAPDGLAVLAAFVEVKNYPENTYYSNFISHLANIKYPGQRTTLTGLDVQDMLPRNLQHYYTYHGSLTTPPCTENVHWFVLADFVKLSRTQVWKLENSLLDHRNKTIHNDYRRTQPLNHRVVESNFPNQEYTLGSEFQFYLHKIEEILDYLRRALN" too.
Result block: 5.04

Query block: // next record MTLLPGLLFLTWLHTCLAHHDPSLRGHPHSHGTPHCYSAEELPLGQAPPHLLARGAKWGQALPVALVSSLEAASHRGRHERPSATTQCPVLRPEEVLEADTHQRSISPWRYRVDTDEDRYPQKLAFAECLCRGCIDARTGRETAALNSVRLLQSLLVLRRRPCSRDGSGLPTPGAFAFHTEFIHVPVGCTCVLPRSV [Q9P0M4]
Result block: 5.54

Query block: Can you handle "MANRGPAYGLSREVQQKIEKQYDADLEQILIQWITTQCRKDVGRPQPGRENFQNWLKDGTVLCELINALYPEGQAPVKKIQASTMAFKQMEQISQFLQAAERYGINTTDIFQTVDLWEGKNMACVQRTLMNLGGLAVARDDGLFSGDPNWFPKKSKENPRNFSDNQLQEGKNVIGLQMGTNRGASQAGMTGYGMPRQIL" next?
Result block: 6.1

Query block: Repeat with "MTCKMSQLERNIETIINTFHQYSVKLGHPDTLNQGEFKELVRKDLQNFLKKENKNEKVIEHIMEDLDTNADKQLSFEEFIMLMARLTWASHEKMHEGDEGPGHHHKPGLGEGTP"
Result block: 5.56

Query block: // next record "MLPRVGCPALPLPPPPLLPLLLLLLGASGGGGGARAEVLFRCPPCTPERLAACGPPPVAPPAAVAAVAGGARMPCAELVREPGCGCCSVCARLEGEACGVYTPRCGQGLRCYPHPGSELPLQALVMGEGTCEKRRDAEYGASPEQVADNGDDHSEGGLVENHVDSTMNMLGGGGSAGRKPLKSGMKELAVFREKVTEQHRQMGKGGKHHLGLEEPKKLRPPPARTPCQQELDQVLERISTMRLPDERGPLEHLYSLHIPNCDKHGLYNLKQCKMSLNGQRGECWCVNPNTGKLIQGAPTIRGDPECHLFYNEQQEARGVHTQRMQ"
Result block: 4.88

Query block: One more sequence: "MALLPVLFLVTVLLPSLPAEGKDPAFTALLTTQLQVQREIVNKHNELRKAVSPPASNMLKMEWSREVTTNAQRWANKCTLQHSDPEDRKTSTRCGENLYMSSDPTSWSSAIQSWYDEILDFVYGVGPKSPNAVVGHYTQLVWYSTYQVGCGIAYCPNQDSLKYYYVCQYCPAGNNMNRKNTPYQQGTPCAGCPDDCDKGLCTNSCQYQDLLSNCDSLKNTAGCEHELLKEKCKATCLCENKIY"
Result block: 5.26

Query block: Quick one: "MEKLLCFLVLTSLSHAFGQTDMSRKAFVFPKESDTSYVSLKAPLTKPLKAFTVCLHFYTELSSTRGYSIFSYATKRQDNEILIFWSKDIGYSFTVGGSEILFEVPEVTVAPVHICTSWESASGIVEFWVDGKPRVRKSLKKGYTVGAEASIILGQEQDSFGGNFEGSQSLVGDIGNVNMWDFVLSPDEINTIYLGGPFSPNVLNWRALKYEVQGEVFTKPQLWP"
Result block: 4.41

Query block: "MAGPATQSPMKLMALQLLLWHSALWTVQEATPLGPASSLPQSFLLKCLEQVRKIQGDGAALQEKLVSECATYKLCHPEELVLLGHSLGIPWAPLSSCPSQALQLAGCLSQLHSGLFLYQGLLQALEGISPELGPTLDTLQLDVADFATTIWQQMEELGMAPALQPTQGAMPAFASAFQRRAGGVLVASHLQSFLEVSYRVLRHLAQP" , same question.
Result block: 5.19
